System: BT-549 breast
Assay: NCI-60 one-dose screen, 48 h
Settings: 10 µM unless noted
Description: Growth inhibition of the BT-549 human tumor cell line is measured as a screen for anti-cancer activity. Cells are grown in 96 well plates and exposed to the test compound for 48 hours. Compounds are tested at a single concentration, which is 10^-5 M for most compounds. The reported endpoint is percent growth (GI% or GIPRCNT), where numbers from 0 - 100% represent growth inhibition, and numbers from -100% - 0 represent cell death. For example, a value of 40 represents 60% growth inhibition. […]
About 83,000 compounds went through this panel and 20% of them were active in at least one assay; those are over-represented in the sample as a whole. Active and inactive are the calls of the source. How the source made its calls: active means growth percent below 10; inactive means the rest.
Possible outcomes: YES = active, NO = inactive

- smiles record: "Cc1ccc(C)c(NC2=C(Cl)C(=O)c3nc(C)ccc3C2=O)c1"
  target: "BT-549 breast"
  label value: "YES"
- smiles record: "O=c1[nH][nH]c(-c2ccc(F)cc2)c1-c1nc2ccccc2s1"
  target: "BT-549 breast"
  label value: "NO"
- smiles record: "COc1ccc(CC(C)=C(c2ccc(OCCN3CCCC3)cc2)c2ccc(OCCN3CCCC3)cc2)cc1"
  target: "BT-549 breast"
  label value: "YES"
- smiles record: "C#CCN(C)CCCOc1ccc(NCc2ccc(/C=C/C(=O)NO)cc2)cc1Cl"
  target: "BT-549 breast"
  label value: "NO"
- smiles record: "Cc1ccc2c(n1)C(=O)C(Cl)=C(Nc1cc(C(F)(F)F)cc(C(F)(F)F)c1)C2=O"
  target: "BT-549 breast"
  label value: "NO"
- smiles record: "Cc1csc(/N=C(N)/N=C(\\N)c2cccc(Br)c2)n1"
  target: "BT-549 breast"
  label value: "NO"
- smiles record: "O=C(/C=C/c1cccc(F)c1)c1cccc(OCCCOc2cccc(C(=O)/C=C/c3cccc(F)c3)c2)c1"
  target: "BT-549 breast"
  label value: "NO"
- smiles record: "COc1ccc(-c2c3c(cn2Cc2cccc(OC)c2)-c2oncc2CCC3)cc1"
  target: "BT-549 breast"
  label value: "NO"
- smiles record: "C#C[C@]1(O)CC[C@H]2[C@@H]3CC=C4c5sc(Nc6cc(Cl)ccc6OC)nc5CC[C@]4(C)[C@H]3CC[C@@]21C"
  target: "BT-549 breast"
  label value: "YES"

---

Test system: HS 578T breast
Test: NCI-60 one-dose screen, 48 h
Conditions: 10 µM unless noted
The panel holds about 83,000 compounds, 20% with a hit somewhere; the sample as a whole holds those more often. The source made the active and inactive calls. How the source made its calls: active means growth percent below 10; inactive means the rest.
Possible outcomes: active, inactive

- smiles record: "CN1CCN(c2ccc(C(=O)/C=C/c3cc(F)cc(C(F)(F)F)c3)cc2)CC1"
  label value: "inactive"
- smiles record: "NC(=O)c1ncn2c(=O)n(CCF)nnc12"
  label value: "inactive"
- smiles record: "O=C(CCCCCC/C=C\\c1csc(Br)n1)NO"
  label value: "inactive"
- smiles record: "COC(=O)c1ccc(NC2=C(Cl)C(=O)c3nc(C)ccc3C2=O)cc1"
  label value: "inactive"
- smiles record: "CCOC(=O)C(=O)Nc1ccc2c(ccn2C(=O)c2cccc(F)c2)c1"
  label value: "inactive"
- smiles record: "Cn1cc(-c2cc3ncnc(Nc4ccc(CC(=O)Nc5nc(C(C)(C)C)cs5)cc4)c3s2)cn1"
  label value: "inactive"
- smiles record: "FC(F)(F)c1cc(Br)cc(-c2cc(-c3ccc4c(c3)OCCO4)[nH]n2)c1"
  label value: "inactive"
- smiles record: "COc1ccc(OC)c(CCn2cncc2-c2c[nH]c3ccc(Cl)cc23)c1"
  label value: "inactive"
- smiles record: "COC(=O)N1CCN(CCNCc2ccc(NC(=O)c3ccc(C)c(C#Cc4cnc5cccnn45)c3)cc2C(F)(F)F)CC1"
  label value: "active"
- smiles record: "Fc1ccc(-c2cn3c(-c4c[nH]c5ccc(Br)cc45)csc3n2)cc1"
  label value: "inactive"
